Biological target: CLK2 kinase (Homo sapiens, UniProt P49760)
Sequence (P49760 whole entry): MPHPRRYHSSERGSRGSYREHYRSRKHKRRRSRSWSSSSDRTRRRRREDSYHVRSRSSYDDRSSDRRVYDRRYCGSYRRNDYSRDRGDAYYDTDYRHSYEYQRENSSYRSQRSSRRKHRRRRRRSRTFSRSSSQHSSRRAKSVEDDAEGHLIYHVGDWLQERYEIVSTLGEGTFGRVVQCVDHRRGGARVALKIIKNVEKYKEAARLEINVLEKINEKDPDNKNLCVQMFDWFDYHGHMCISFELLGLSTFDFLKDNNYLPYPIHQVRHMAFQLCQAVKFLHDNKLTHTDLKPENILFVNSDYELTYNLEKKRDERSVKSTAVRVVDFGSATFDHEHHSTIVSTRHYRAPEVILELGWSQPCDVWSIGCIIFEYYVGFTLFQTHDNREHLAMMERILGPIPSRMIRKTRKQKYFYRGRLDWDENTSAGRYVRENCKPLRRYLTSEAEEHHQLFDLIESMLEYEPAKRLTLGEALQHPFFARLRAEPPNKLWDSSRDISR
Assay: CLK2 kinase activity assay (Z-lyte FRET);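 note: FRET read-out as coumarin to fluorescein emission ratio, unphosphorylated peptide as 0% and phosphorylated peptide as 100% controls, duplicate reactions, non-linear regression fit of dose-response curves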
Details: Z-lyte Ser/Thr 6 peptide, 60 μM ATP, 1 h at room temperature
pEC50: −log10 of the molar value.
experimental-endpoint: pEC50

Some solved entries appear below for comparison.
Nc1cncc(-c2ccc3[nH]nc(-c4cc5cccnc5[nH]4)c3c2)c1	8.52
FC1(F)CCN(Cc2cncc(-c3ccc4[nH]nc(-c5cc6c(N7CCCCC7)cccc6[nH]5)c4c3)c2)C1	7.92
O=C(CC1CCNCC1)Nc1cncc(-c2cc3c(-c4nc5c(-c6cccc(F)c6)ccnc5[nH]4)n[nH]c3cn2)c1	8.70

(P) O=C(Nc1cncc(-c2ccc3[nH]nc(-c4nc5c(-c6cccc(F)c6)cccc5[nH]4)c3n2)c1)C1CC1
(Q) CC(C)Nc1cncc(-c2ccc3[nH]nc(-c4nc5c(-c6cccnc6)nccc5[nH]4)c3n2)c1
(R) CN(C)Cc1cncc(-c2ccc3[nH]nc(-c4nc5c(-c6cccc(F)c6)nccc5[nH]4)c3n2)c1
(S) Fc1ccc(-c2cncc3[nH]c(-c4n[nH]c5cnc(-c6cncc(CN7CCC(F)(F)C7)c6)cc45)cc23)cc1
Parameters: sort_field (pEC50), sort_dir (desc). When ranking, write the labels in the order the request describes.
R, Q, P, S
(R: 9.00, Q: 8.70, P: 8.05, S: 7.80)

(I) O=C(Nc1cc2cc(-c3cncc(CN4CCC(O)CC4)c3)ccc2cn1)c1ccc(F)cc1
(II) CN(C)c1cncc(-c2ccc3[nH]nc(-c4nc5c(-c6cccs6)cncc5[nH]4)c3n2)c1
For I and II , which recorded pEC50 is lower? Please identify the chosen entry by its label.
I

(P) CC(C)CC(=O)Nc1cncc(-c2ccc3[nH]nc(-c4cc5c(-c6ccccc6F)nccc5[nH]4)c3n2)c1
(Q) CN(C)Cc1cncc(-c2ccc3[nH]nc(-c4cc5c(-c6cccc(F)c6)cncc5[nH]4)c3c2)c1
Quick one: lower pEC50, P or Q ? # answer = label of selected item
P
(P: 8.00, Q: 8.52)

(1) COc1cncc(-c2ccc3[nH]nc(-c4cc5c(-c6ccoc6)nccc5[nH]4)c3c2)c1
(2) CN(C)Cc1cncc(-c2cc3c(-c4cc5c(N6CCN(C)CC6)nccc5[nH]4)n[nH]c3cn2)c1
(3) CN1CCN(c2ccc(NC(=O)c3n[nH]c4ccc(-c5cncc(NC(=O)C6CC6)c5)cc34)cn2)CC1
Task field, ranking: reported pEC50, descending order. Returns: the labels arranged in the requested order.
3, 1, 2

(P) CN(C)Cc1cncc(-c2ccc3[nH]nc(-c4cc5c(N6CCCCC6)cccc5[nH]4)c3c2)c1
(Q) CC(C)CC(=O)Nc1ccncc1NC(=O)c1n[nH]c2ccc(-c3cncc(CN4CCCCC4)c3)cc12
Lower value of pEC50 belongs to which: P or Q ? Answer format: the label of the selected item.
P
(P: 7.89, Q: 8.15)

(A) Cc1n[nH]c2cc(F)c(-c3cncc(CN4CCCCC4)n3)cc12
(B) CCC(=O)Nc1cncc(-c2ccc3[nH]nc(-c4nc5c(N6CCCCC6)ccnc5[nH]4)c3n2)c1
(C) O=C(Nc1cncc(-c2cc3c(-c4cc5c(-c6cccc(F)c6)ccnc5[nH]4)n[nH]c3cn2)c1)C1CC1
Rank items: key pEC50, increasing. Present the labels in the sequence the task asks for.
A, C, B
